biological target: UniProt:O43613; assay: Human orexin 1 receptor radioligand binding; details: human orexin 1 receptor; averages of 2-20 runs; read-out: hOX1 Ki
valueKind: Ki (nM)

O=C(c1c(F)cccc1-c1ncco1)N1C[C@H]2C[C@@H](Oc3ccc(C(F)(F)F)cn3)[C@@H]1C2 [Example 292] | 40
O=C(c1cccc(F)c1-c1ncccn1)N1C[C@H]2C[C@@H](Oc3ccc(F)cn3)[C@@H]1C2 [Example 120] | 111

1: O=C(c1ccc(F)cc1-n1nccn1)N1C[C@H]2C[C@@H](Nc3cnc(C(F)(F)F)cn3)[C@@H]1C2 [Example 193]
2: O=C(c1c(F)cccc1-n1nccn1)N1C[C@H]2C[C@@H](Oc3ccc(Br)cn3)[C@@H]1C2 [Example 109]
Q. I'm curious, which of these has a smaller Ki number: 1 or 2 ? Write down the label attached to your selection.
A. 2
(2: 5 nM, 1: 65 nM)

* * *

target: human orexin 1 receptor (Homo sapiens); experiment: Human orexin 1 receptor radioligand binding; conditions: human orexin 1 receptor; averages of 2-20 runs; read-out: hOX1 Ki
valueKind: Ki (nM)

These solved cases illustrate the format of a correct answer.
O=C(c1ccccc1-n1nccn1)N1C[C@H]2C[C@@H](Oc3ncc(Cl)cn3)[C@@H]1C2 | 112
O=C(c1cccc(F)c1-c1ncccn1)N1C[C@H]2C[C@@H](Nc3ccc(C(F)F)cn3)[C@@H]1C2 | 15

1: Cc1ccc(-n2nccn2)c(C(=O)N2C[C@H]3C[C@@H](Nc4ncc(C(F)(F)F)cc4F)[C@@H]2C3)n1
2: O=C(c1cccc2cn[nH]c12)N1C[C@H]2C[C@@H](Nc3ccc(C(F)(F)F)cn3)[C@@H]1C2
3: O=C(c1cccc(F)c1-c1ncccn1)N1C[C@@H]2CC[C@H]1[C@H](Oc1ccc(Br)cn1)C2
4: O=C(c1cccc(F)c1-c1ncc(F)cn1)N1C[C@@H]2CC[C@H]1[C@H](Oc1cnc(C(F)(F)F)cn1)C2
Q. Sort the 4 compounds by Ki; largest first, smallest last. The reply should contain the labels ordered as requested.
A. 2, 4, 1, 3
(2: 151 nM, 4: 16 nM, 1: 8 nM, 3: 5 nM)

* * *

target: UniProt O43614; assay: Human orexin 2 receptor radioligand binding; details: human orexin 2 receptor; averages of 2-20 runs; read-out: hOX2 Ki
Sequence (O43614 whole entry): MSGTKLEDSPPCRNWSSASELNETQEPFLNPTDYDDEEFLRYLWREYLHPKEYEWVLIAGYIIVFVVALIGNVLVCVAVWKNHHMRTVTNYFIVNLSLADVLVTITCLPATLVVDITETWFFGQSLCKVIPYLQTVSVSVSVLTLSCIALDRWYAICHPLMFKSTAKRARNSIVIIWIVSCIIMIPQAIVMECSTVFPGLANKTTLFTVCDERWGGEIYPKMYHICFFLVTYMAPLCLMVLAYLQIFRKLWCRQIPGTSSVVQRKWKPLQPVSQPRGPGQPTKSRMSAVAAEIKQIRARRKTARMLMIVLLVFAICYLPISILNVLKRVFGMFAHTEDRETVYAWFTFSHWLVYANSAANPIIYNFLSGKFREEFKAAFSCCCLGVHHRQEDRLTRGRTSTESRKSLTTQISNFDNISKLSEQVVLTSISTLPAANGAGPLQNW
valueKind: Ki (nM)

These solved cases illustrate the format of a correct answer.
O=C(c1ccc(F)cc1-n1nccn1)N1C[C@H]2C[C@@H](Nc3cnc(C(F)(F)F)cn3)[C@@H]1C2 | 2000
O=C(c1cccc(F)c1-n1nccn1)N1C[C@H]2C[C@@H](Oc3ccc(Br)cn3)[C@@H]1C2 | 436
Cc1ccc(-n2nccn2)c(C(=O)N2C[C@H]3C[C@@H](Oc4ccc(Br)cn4)[C@@H]2C3)n1 | 578

I: O=C(c1cccc(F)c1-c1ncccn1)N1C[C@H]2C[C@@H](Oc3ccc(C(F)F)cn3)[C@@H]1C2
II: O=C(c1cccc(F)c1-n1nccn1)N1C[C@@H]2CC[C@H]1[C@H](Nc1cnc(C(F)(F)F)cn1)C2
III: O=C(c1ccc(F)cc1-c1ncccn1)N1C[C@H]2C[C@@H](Nc3ccc(Cl)cn3)[C@@H]1C2
Q. Reorder the items by Ki, least to greatest. The reply should contain the labels ordered as requested.
A. I, II, III
(I: 149 nM, II: 534 nM, III: 1900 nM)
